assay: clinical; details: human, in vivo, po, 801 mg, AUC0-∞, Median
test readout: AUC(0-inf) (ng·h/mL)

{"compound": "Cc1ccc(=O)n(-c2ccccc2)c1 [Pirfenidone, 5-methyl-1-phenyl-2-(1H)-pyridone]", "value reported": 53200}

----------
assay: clinical; conditions: human, in vivo, po, T1/2, Mean (SD)

{"molecule": "Cc1ccc(=O)n(-c2ccccc2)c1 [Pirfenidone, 5-methyl-1-phenyl-2-(1H)-pyridone]", "uom": "h", "half-life": 4}

----------
experiment: clinical; conditions: human, in vivo, po, 801 mg, Cmax, Geometric Mean
test readout: Cmax (ng/mL)

{"compound": "Cc1ccc(=O)n(-c2ccccc2)c1", "value reported": 10700}
